Molecular target: DNA dC->dU-editing enzyme APOBEC-3F (Homo sapiens) (UniProt Q8IUX4)
Sequence (Q8IUX4 whole entry, looked up): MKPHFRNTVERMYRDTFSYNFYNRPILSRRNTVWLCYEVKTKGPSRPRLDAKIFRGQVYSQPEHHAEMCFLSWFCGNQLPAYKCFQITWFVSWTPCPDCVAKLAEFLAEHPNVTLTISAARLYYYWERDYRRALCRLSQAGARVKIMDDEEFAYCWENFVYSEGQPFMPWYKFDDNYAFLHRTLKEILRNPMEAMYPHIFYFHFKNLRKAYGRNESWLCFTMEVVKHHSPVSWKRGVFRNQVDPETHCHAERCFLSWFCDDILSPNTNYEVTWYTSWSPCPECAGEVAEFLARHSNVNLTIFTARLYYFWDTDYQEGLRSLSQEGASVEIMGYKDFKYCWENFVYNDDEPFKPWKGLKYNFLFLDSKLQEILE
Assay: qHTS for inhibitors of Vif-A3F interactions: Cherry picks; also: nearly all actives have a fitted effect of over 70% in size;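 as to max response: % of control where 0% means no effect; active compounds raise eYFP fluorescence by blocking Vif-driven A3F loss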
Conditions: HeLa A3F-eYFP + Vif, eYFP fluorescence, 24 h
From the text: The recent discovery and characterization of host restriction factors, which provide a potent defense to invading retroviruses, has provided new targets for antiviral drug development. […] In the presence of an inhibitor, it is expected that Vif will be unable to degrade A3G-eYFP and/or A3F-eYFP, resulting in an increase in yellow fluorescence. […]
The campaign covered roughly 2,100 compounds. About 590 (28%) were called active. Roughly 42% stayed inconclusive and do not appear here. The list shows a part of the results.
Measured max response, listed per entry.

structure-notation: Cc1ccc(CNC(=O)Cn2cc(C(=O)c3ccc(Cl)cc3)c(=O)c3ccc(C)nc32)cc1
max response: -28.8% (inactive)

structure-notation: COc1ccc(CN(C(C)=O)c2cccc(C)c2C)cc1
max response: -29.4% (inactive)

structure-notation: CC(=O)Nc1ccc(S(=O)(=O)Nc2nc3ccccc3nc2Nc2ccc(N)cc2)cc1
max response: -0.838% (inactive)

structure-notation: Cc1ccc(-n2c(=O)c3ccc(C(=O)NCc4ccccc4Cl)cc3n(CC(=O)Nc3cccc(Cl)c3)c2=O)cc1
max response: -26% (inactive)

structure-notation: Cc1ccc(C(=O)O)cc1Nc1nc2ccccc2n2nnnc12
max response: -4.15% (inactive)

structure-notation: Cc1c(=O)n(OCc2ccc(Cl)cc2)c2ccccc2[n+]1[O-]
max response: -8.69% (inactive)

structure-notation: CN(C)c1ccc(Nc2nc3ccccc3n3nnnc23)cc1
max response: -2.05% (inactive)

structure-notation: COc1cc(/C=N/Nc2cc(C)nc(NS(=O)(=O)c3ccccc3)n2)ccc1O
max response: 2.36% (inactive)

structure-notation: COc1ccccc1/C=C/C=N/n1c(-c2ccc(C)cc2)n[nH]c1=S
max response: -22% (inactive)

structure-notation: CCNC(=S)N/N=C(\C)c1ccc(N2CCOCC2)cc1
max response: -0.726% (inactive)

* * *

Target: DNA dC->dU-editing enzyme APOBEC-3F (Homo sapiens) (UniProt Q8IUX4)
Assay: qHTS for inhibitors of Vif-A3F interactions: Cherry picks; also: nearly all actives have a fitted effect of over 70% in size; also: potency is read from the fitted curve at half-maximal effect
Conditions: HeLa A3F-eYFP + Vif, eYFP fluorescence, 24 h
The whole screen tested about 2,100 compounds, of which about 590 (28%) were called active. Inconclusive results (about 42%) are left out. This is one part of the list.

compound: CCc1ccc(-c2cc(C(F)(F)F)n3nc(C(=O)Nc4cnn(Cc5ccc(C)cc5)c4)cc3n2)s1
Potency: 14.6 µM (active)

compound: N#CCc1ccc(NC(=O)/C=C/c2ccc([N+](=O)[O-])o2)cc1
Potency: 4.11 µM (active)

compound: COc1cc2nc(/C=C/c3ccc(N(C)C)cc3)sc2cc1SC
Potency: 20.6 µM (active)

compound: O=S(=O)(Nc1nc2ccccc2nc1N1CCN(c2ccccn2)CC1)c1ccc(Cl)cc1
Potency: 18.4 µM (active)

compound: Cc1ccc(N=C2NC(=O)/C(=C/c3cn(C)c4ccccc34)S2)cc1C
Potency: 17.7 µM (active)

compound: CN(C)c1ccc(/C=C/c2ccnc3ccc(Br)cc23)cc1
Potency: 3.66 µM (active)

compound: CN(C)c1ccc(/C=C/c2ccnc3ccc(N)cc23)cc1
Potency: 20.6 µM (active)

compound: CN(C)c1ccc(/C=C/c2ccnc3cc(Cl)ccc23)cc1
Potency: 2.91 µM (active)

compound: Cc1ccc2nccc(/C=C/c3ccc(N(C)C)cc3)c2c1
Potency: 5.8 µM (active)

compound: COc1cc(N2CCCC2)c(OC)cc1/C=C(/C#N)c1ccc(F)cc1
Potency: 20.6 µM (active)

compound: Cn1cccc1/C=C1\SC(=Nc2ccc(O)cc2)NC1=O
Potency: 12.5 µM (active)

compound: CC[n+]1ccccc1/C=C/c1ccc(N(C)C)cc1
Potency: 20.6 µM (active)

compound: CC(C)CC[n+]1ccccc1/C=C/c1ccc(N(C)C)cc1
Potency: 20.6 µM (active)

compound: CCN(CC)S(=O)(=O)c1cc([N+](=O)[O-])ccc1N=Nc1c(O)[nH]c2ccccc12
Potency: 16.4 µM (active)

compound: COc1ccc2nc(C)cc(SCC(=O)N/N=C/c3cccc4ccccc34)c2c1
Potency: 11.2 µM (active)

compound: COc1cc(N2CCCC2)c(OC)cc1/C=C(/C#N)c1ccc(Br)cc1
Potency: 7.31 µM (active)

compound: Cc1ccc2c(c1)Sc1c(ccc3ccccc13)N2
Potency: 16.4 µM (active)

compound: Cn1cccc1/C=C1\SC(=Nc2cccc(O)c2)NC1=O
Potency: 15.8 µM (active)

compound: CCOC(=O)N1CCc2c(sc3c2C(=O)NC(c2ccc(N(C)C)cc2)N3)C1 (configuration not stated)
Potency: 20.6 µM (active)

compound: O=C1c2ccccc2-c2onc3c(N4CCN(C5CCCCC5)CC4)cc(NCCO)c1c23
Potency: 3.66 µM (active)

compound: O=C(N=c1ccn(-c2nc3ccccc3nc2NS(=O)(=O)c2ccc(Cl)cc2)cc1)c1cccs1
Potency: 13 µM (active)

compound: O=C(N/N=C/c1ccc([N+](=O)[O-])o1)c1cc2c(ccc3ccccc32)o1
Potency: 9.2 µM (active)

* * *

Biological target: DNA dC->dU-editing enzyme APOBEC-3F (Homo sapiens) (UniProt Q8IUX4)
Test: qHTS for inhibitors of Vif-A3F interactions: Cherry picks; also: nearly all actives have a fitted effect of over 70% in size; also: potency is read from the fitted curve at half-maximal effect
Conditions: HeLa A3F-eYFP + Vif, eYFP fluorescence, 24 h
In all, about 2,100 compounds went through this assay and about 590 (28%) were called active. Another 42% or so got no clear call; they are omitted. The list shows a part of the results.
A collection of compounds and their measured Potency

compound: CC(=O)Nc1sc(/C(C#N)=C\c2cccc(Cl)c2)nc1-c1ccc(C)cc1
Potency: 6.51 µM (active)

compound: CC(=O)c1cccc(NC(=O)/C=C/c2ccc([N+](=O)[O-])s2)c1
Potency: 5.17 µM (active)

compound: COc1ccc(N=Cc2c(O)n(-c3cccc(C)n3)c(=O)c3ccccc23)c(OC)c1
Potency: 13 µM (active)

compound: Cc1cccc(NC(=O)/C=C/c2ccc([N+](=O)[O-])s2)c1
Potency: 3.26 µM (active)

compound: CCOC(=O)C1C(=O)C=C(/C=C/c2ccc(N(C)C)cc2)CC1c1ccccc1 (stereo not given)
Potency: 10.3 µM (active)

compound: CC(=O)Nc1sc(/C(C#N)=C/c2ccc(Cl)c(Cl)c2)nc1-c1ccc(C)cc1
Potency: 2.59 µM (active)

compound: CC(=O)/C(N=Nc1cc(C)ccc1O)=C(\C)O
Potency: 20.6 µM (active)

compound: N=c1n(CC(=O)c2ccc([N+](=O)[O-])cc2)c2ccccc2n1Cc1ccccc1
Potency: 14.6 µM (active)

compound: CC[N+](C)(C(=O)O)/C(=C\c1ccccc1)c1ccnc2ccccc12 (stereo not given)
Potency: 20.6 µM (active)

compound: Nc1nc(-c2cc(O)ccc2[N+](=O)[O-])cc(-c2ccccc2)c1[N+](=O)[O-]
Potency: 12.5 µM (active)

* * *

Target: DNA dC->dU-editing enzyme APOBEC-3F (Homo sapiens)
Test: qHTS for inhibitors of Vif-A3F interactions: Cherry picks; also: nearly all actives have a fitted effect of over 70% in size; also: potency is read from the fitted curve at half-maximal effect
Details: HeLa A3F-eYFP + Vif (tagged APOBEC3F with the HIV-1 protein that degrades it), eYFP fluorescence, 24 h
Hit rate of the full screen: of about 2,100 compounds, about 590 (28%) were called active. Not shown: some 42% with an inconclusive outcome. The list shows a part of the results.
The entries below come with measured Potency values attached.

structure-notation: CN(C)c1ccc(/C=C/c2ccnc3c(Cl)cccc23)cc1
tgt: DNA dC->dU-editing enzyme APOBEC-3F (Homo sapiens)
Potency: 4.11 µM (active)
--
structure-notation: CN(C)c1ccc(/C=C/c2ccnc3c(N)cccc23)cc1
tgt: DNA dC->dU-editing enzyme APOBEC-3F (Homo sapiens)
Potency: 16.4 µM (active)
--
structure-notation: Cc1ccc(C(=O)Nc2sc(Cc3ccc4c(c3)OCO4)c(C)c2C(N)=O)cc1
tgt: DNA dC->dU-editing enzyme APOBEC-3F (Homo sapiens)
Potency: 6.51 µM (active)
--
structure-notation: COc1ccc2nc3ccccc3nc2c1NC(=O)c1ccc(Cl)cc1Cl
tgt: DNA dC->dU-editing enzyme APOBEC-3F (Homo sapiens)
Potency: 3.53 µM (active)
--
structure-notation: Cc1nnc(NC(=O)c2sc3nc(-c4cccs4)cc(C(F)(F)F)c3c2N)s1
tgt: DNA dC->dU-editing enzyme APOBEC-3F (Homo sapiens)
Potency: 7.31 µM (active)
--
structure-notation: O=C(NCc1ccccc1)c1cccc2c1C(=O)c1ccc(/C=C/c3ccccc3)cc1S2(=O)=O
tgt: DNA dC->dU-editing enzyme APOBEC-3F (Homo sapiens)
Potency: 16.4 µM (active)
--
structure-notation: Nc1c(C(=O)Nc2ccc(F)cc2)sc2nc(-c3cccs3)cc(C(F)(F)F)c12
tgt: DNA dC->dU-editing enzyme APOBEC-3F (Homo sapiens)
Potency: 1.64 µM (active)
--
structure-notation: O=c1oc2cc(O)ccc2cc1-c1nc(-c2ccc(Cl)c(Cl)c2)cs1
tgt: DNA dC->dU-editing enzyme APOBEC-3F (Homo sapiens)
Potency: 0.651 µM (active)
--
structure-notation: O=C(Nc1ccccc1OC(=O)c1ccccc1)c1ccccc1
tgt: DNA dC->dU-editing enzyme APOBEC-3F (Homo sapiens)
Potency: 17.7 µM (active)
--
structure-notation: O=S(=O)(Nc1ccc(C(O)(C(F)(F)F)C(F)(F)F)cc1)c1ccc(Cl)c2nonc12
tgt: DNA dC->dU-editing enzyme APOBEC-3F (Homo sapiens)
Potency: 12.5 µM (active)
--
structure-notation: CC(C)CN(CC(C)C)c1ccc(/C=C/c2ccnc3ccccc23)cc1
tgt: DNA dC->dU-editing enzyme APOBEC-3F (Homo sapiens)
Potency: 20.6 µM (active)
--
structure-notation: CCc1sc(-c2cc3ccc(O)cc3oc2=O)nc1-c1ccc(C)cc1
tgt: DNA dC->dU-editing enzyme APOBEC-3F (Homo sapiens)
Potency: 4.11 µM (active)
--
structure-notation: CCN(C)c1ccc(/C=C/c2ccnc3ccccc23)cc1
tgt: DNA dC->dU-editing enzyme APOBEC-3F (Homo sapiens)
Potency: 13 µM (active)
--
structure-notation: Cc1ccc2nc(/C(C#N)=C\c3ccc([N+](=O)[O-])o3)[nH]c2c1
tgt: DNA dC->dU-editing enzyme APOBEC-3F (Homo sapiens)
Potency: 3.26 µM (active)
--
structure-notation: CCOC(=O)c1ccc(NC(=O)CSc2nc(-c3ccc(F)cc3)cc(C(F)(F)F)c2C#N)cc1
tgt: DNA dC->dU-editing enzyme APOBEC-3F (Homo sapiens)
Potency: 18.4 µM (active)
--
structure-notation: Nc1ccccc1/C=C/c1ccnc2ccccc12
tgt: DNA dC->dU-editing enzyme APOBEC-3F (Homo sapiens)
Potency: 23.1 µM (active)
--
structure-notation: CCCCN(CCC(=O)O)c1ccc(/C=C/c2ccnc3ccccc23)cc1
tgt: DNA dC->dU-editing enzyme APOBEC-3F (Homo sapiens)
Potency: 18.4 µM (active)
--
structure-notation: Nc1c(C(=O)Nc2nccs2)sc2nc(-c3cccs3)cc(C(F)(F)F)c12
tgt: DNA dC->dU-editing enzyme APOBEC-3F (Homo sapiens)
Potency: 8.86 µM (active)
--
structure-notation: CN(C)c1ccc(/C=C/c2ccnc3ccccc23)c(N)c1
tgt: DNA dC->dU-editing enzyme APOBEC-3F (Homo sapiens)
Potency: 7.31 µM (active)
--
structure-notation: CN(C)c1ccc(/C=C/c2ccnc3ccccc23)cc1
tgt: DNA dC->dU-editing enzyme APOBEC-3F (Homo sapiens)
Potency: 13 µM (active)
--
structure-notation: Clc1ccc(/C=N/NC2=Nc3cccc4cccc2c34)cc1
tgt: DNA dC->dU-editing enzyme APOBEC-3F (Homo sapiens)
Potency: 14.6 µM (active)
--
structure-notation: Cn1c(N)c(-c2ccccc2)c2ccc([N+](=O)[O-])cc2c1=O
tgt: DNA dC->dU-editing enzyme APOBEC-3F (Homo sapiens)
Potency: 4.98 µM (active)

FYI, the data here is from PubChem BioAssay AID651814.
